Entries and their measured IC50 follow.
- target_or_system: c-kit kinase (Homo sapiens (Human))
- Sequence (P10721 26-976): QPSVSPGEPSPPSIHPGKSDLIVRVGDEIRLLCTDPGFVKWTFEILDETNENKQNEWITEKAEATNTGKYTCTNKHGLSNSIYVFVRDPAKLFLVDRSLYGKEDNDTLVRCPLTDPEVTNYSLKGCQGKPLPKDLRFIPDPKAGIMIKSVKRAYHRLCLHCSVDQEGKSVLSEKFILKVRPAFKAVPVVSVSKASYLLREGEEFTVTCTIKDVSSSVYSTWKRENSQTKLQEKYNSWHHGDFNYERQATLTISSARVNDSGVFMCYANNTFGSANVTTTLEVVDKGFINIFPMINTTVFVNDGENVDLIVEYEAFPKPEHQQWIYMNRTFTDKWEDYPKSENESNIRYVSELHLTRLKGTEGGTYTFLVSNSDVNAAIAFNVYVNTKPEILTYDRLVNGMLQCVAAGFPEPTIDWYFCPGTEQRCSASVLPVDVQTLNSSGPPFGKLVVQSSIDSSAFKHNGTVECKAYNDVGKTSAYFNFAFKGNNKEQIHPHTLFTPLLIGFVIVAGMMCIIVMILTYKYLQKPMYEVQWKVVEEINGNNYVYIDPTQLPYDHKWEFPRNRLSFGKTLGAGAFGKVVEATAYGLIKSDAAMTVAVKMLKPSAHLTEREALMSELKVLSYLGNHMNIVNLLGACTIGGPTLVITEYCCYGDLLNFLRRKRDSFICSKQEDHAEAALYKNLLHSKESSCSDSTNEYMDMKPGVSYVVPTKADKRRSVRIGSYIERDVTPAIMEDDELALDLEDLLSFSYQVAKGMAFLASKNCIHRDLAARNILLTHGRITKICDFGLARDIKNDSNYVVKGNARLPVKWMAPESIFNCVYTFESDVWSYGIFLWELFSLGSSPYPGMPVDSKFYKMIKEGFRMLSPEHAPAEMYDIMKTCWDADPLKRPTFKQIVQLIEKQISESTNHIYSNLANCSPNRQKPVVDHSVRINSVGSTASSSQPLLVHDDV
- test_method_notes: c-Kit biochemical assay (AlphaScreen)
- study_conditions: c-kit biochemical inhibitory activity

Here's what some known entries look like.
- molecule: "Cc1n[nH]c(C(=O)Nc2cnc3[nH]c(C4=CCN(C(=O)N5CCOCC5)CC4)cc3c2)c1C [P-2034]"
  target_or_system: "c-kit kinase (Homo sapiens (Human))"
  endpoint_result: "0.0001 to 1 µM"
- molecule: "Cc1[nH]nc(C(=O)Nc2cnc3[nH]c(C4=CCN(C(=O)C5CC5)CC4)cc3c2)c1Cl [P-2039]"
  target_or_system: "c-kit kinase (Homo sapiens (Human))"
  endpoint_result: "0.0001 to 1 µM"
- molecule: "Cc1n[nH]c(C(=O)Nc2cnc3[nH]c(-c4c(C)nn(C)c4C)cc3c2)c1C [P-2165]"
  target_or_system: "c-kit kinase (Homo sapiens (Human))"
  endpoint_result: "0.0001 to 1 µM"

Proceeding to the next molecule to report its IC50.
q: What measured IC50 is associated with Cc1n[nH]c(C(=O)Nc2cnc3[nH]c(-c4ccccc4OC(F)(F)F)cc3c2)c1C [P-2182] on c-kit kinase (Homo sapiens (Human))?
a: 1 to 10 µM

====

- target_or_system: c-kit mutant D816V (Homo sapiens (Human), UniProt P10721, D816V/DEL694-753)
- Sequence (P10721 other isoform, or with tags, fused parts or gaps D816V/del 694-753): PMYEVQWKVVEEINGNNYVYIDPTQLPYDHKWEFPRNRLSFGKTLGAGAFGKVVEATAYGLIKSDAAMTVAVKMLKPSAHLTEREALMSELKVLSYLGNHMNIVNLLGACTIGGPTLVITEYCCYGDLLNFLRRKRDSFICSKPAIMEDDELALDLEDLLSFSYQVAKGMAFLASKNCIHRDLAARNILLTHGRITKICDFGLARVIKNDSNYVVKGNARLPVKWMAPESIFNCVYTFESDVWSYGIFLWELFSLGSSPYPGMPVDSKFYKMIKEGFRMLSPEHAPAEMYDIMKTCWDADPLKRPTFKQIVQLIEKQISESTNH
- test_method_notes: c-Kit mutant D816V biochemical assay (AlphaScreen)
- study_conditions: c-kit D816V biochemical inhibitory activity
Entries and their measured IC50 follow.

- compound: "Cc1n[nH]c(C(=O)Nc2cnc3[nH]c(-c4ccccc4)cc3c2)c1C [P-2007]"
  IC50: "0.0001 to 1 µM"
- compound: "Cc1n[nH]c(C(=O)Nc2cnc3[nH]nc(-c4cccc(N5CCN(C(=O)OC(C)(C)C)CC5)c4)c3c2)c1C [P-2162]"
  IC50: "1 to 10 µM"
- compound: "Cc1[nH]nc(C(=O)Nc2cnc3[nH]c(C4=CCN(C(=O)C5CC5)CC4)cc3c2)c1Cl [P-2039]"
  IC50: "0.0001 to 1 µM"

q: Give its IC50 value. Item: CCc1cc(-c2cc3cc(NC(=O)c4[nH]nc(C)c4C)cnc3[nH]2)ccn1 [P-2177]
a: 0.0001 to 1 µM

q: Same read-out for Cc1n[nH]c(C(=O)Nc2cnc3[nH]c(-c4ccccc4OC(F)(F)F)cc3c2)c1C [P-2182] ?
a: 0.0001 to 1 µM

====

- target_or_system: c-kit mutant D816V (Homo sapiens (Human), UniProt P10721, D816V/DEL694-753)
- test_method_notes: c-Kit mutant D816V biochemical assay (AlphaScreen)
- study_conditions: c-kit D816V biochemical inhibitory activity
Entries and their measured IC50 follow.

Here's what some known entries look like.
- molecule: "Cc1n[nH]c(C(=O)Nc2cnc3[nH]c(Cl)cc3c2)c1C"
  IC50: "0.0001 to 1 µM"
- molecule: "Cc1n[nH]c(C(=O)Nc2cnc3[nH]c(-c4ccc(F)c(-c5nn[nH]n5)c4)cc3c2)c1C"
  IC50: "0.0001 to 1 µM"
- molecule: "N#Cc1cccc(C(=O)Nc2cnc3[nH]c(-c4ccc(F)cc4)cc3c2)c1"
  IC50: "10 to 200 µM"
- molecule: "Cc1[nH]nc(NC(=O)c2cnc3[nH]c(-c4ccccc4)cc3c2)c1C"
  IC50: "10 to 200 µM"
- molecule: "Cc1cc2ncc(NC(=O)c3n[nH]c(C)c3C)cn2n1"
  IC50: "1 to 10 µM"
- molecule: "O=C(Nc1cnc2[nH]c(-c3ccc(F)cc3)cc2c1)c1cc(C(F)F)n[nH]1"
  IC50: "1 to 10 µM"
- molecule: "Cc1[nH]nc(C(=O)Nc2cnc3[nH]c(C4=CCN(C(=O)C5CC5)CC4)cc3c2)c1C"
  IC50: "0.0001 to 1 µM"
- molecule: "Cc1cc(C#N)ccc1-c1cc2cc(NC(=O)c3[nH]nc(C)c3C)cnc2[nH]1"
  IC50: "0.0001 to 1 µM"
- molecule: "COc1ccc(-c2cc3cc(NC(=O)c4[nH]nc(C)c4C)cnc3[nH]2)c(Cl)c1"
  IC50: "0.0001 to 1 µM"
- molecule: "COc1ccc(-c2cc3cc(NC(=O)c4[nH]nc(C)c4C)cnc3[nH]2)c(C)n1"
  IC50: "0.0001 to 1 µM"

q: What measured IC50 is associated with Cc1n[nH]c(C(=O)Nc2cnc3[nH]c(C4=CCN(C(=O)C(O)CO)CC4)cc3c2)c1C (centres unmarked) on c-kit mutant D816V (Homo sapiens (Human), UniProt P10721, D816V/DEL694-753)?
a: 0.0001 to 1 µM

q: Same read-out for `[2H]c1c([2H])c([2H])c(-c2cc3cc(NC(=O)c4[nH]nc(C)c4C)cnc3[nH]2)c([2H])c1[2H]` ?
a: 0.0001 to 1 µM

q: Same read-out for `NC(=O)c1cccc(NC(=O)c2cnc3[nH]c(-c4ccccc4)cc3c2)c1` ?
a: 10 to 200 µM

q: Same read-out for `CCn1nccc1S(=O)(=O)Nc1cnc2[nH]c(-c3ccc(F)cc3)cc2c1` ?
a: 10 to 200 µM

q: Same read-out for `Cc1onc(C(=O)Nc2cnc3[nH]c(-c4ccccc4)cc3c2)c1C` ?
a: 10 to 200 µM

q: Same read-out for `Cc1nn(C)cc1-c1cc2cc(NC(=O)c3[nH]nc(C)c3C)cnc2[nH]1` ?
a: 0.0001 to 1 µM

q: Same read-out for `Cc1ccc(-c2cc3cc(NC(=O)c4[nH]nc(C)c4C)cnc3[nH]2)cn1` ?
a: 0.0001 to 1 µM

q: Same read-out for `CCc1ccc(-c2cc3cc(NC(=O)c4[nH]nc(C)c4C)cnc3[nH]2)cn1` ?
a: 0.0001 to 1 µM

====

- target_or_system: UniProtKB P10721
- test_method_notes: c-Kit biochemical assay (AlphaScreen)
- study_conditions: c-kit biochemical inhibitory activity
parameter_measured: IC50

Here's what some known entries look like.
- compound: "O=C(Nc1cnc2[nH]c(-c3ccccc3)cc2c1)c1n[nH]c2ccc(F)cc12"
  IC50: "10 to 200 µM"
- compound: "Cc1n[nH]c(C(=O)Nc2cnc3[nH]c(-c4ccccc4C(F)(F)F)cc3c2)c1C"
  IC50: "1 to 10 µM"
- compound: "O=C(Nc1cnc2[nH]c(-c3ccccc3)cc2c1)c1cn[nH]n1"
  IC50: "1 to 10 µM"

q: Give its IC50 value. Item: `O=C(Nc1cnc2[nH]c(-c3ccc(F)cc3)cc2c1)c1cccc2n[nH]cc12`
a: 0.0001 to 1 µM

q: Same read-out for Cc1n[nH]c(C(=O)Nc2cnc3[nH]c(C4=CCN(C(=O)C(O)CO)CC4)cc3c2)c1C (stereo not drawn) ?
a: 0.0001 to 1 µM

q: Same read-out for `Cc1n[nH]c(C(=O)Nc2cnc3[nH]c(-c4ccc(C#N)c(N5CCOCC5)c4)cc3c2)c1C` ?
a: 1 to 10 µM

q: Same read-out for `Cc1c[nH]nc1C(=O)Nc1cnc2[nH]c(-c3ccc(F)cc3)cc2c1` ?
a: 0.0001 to 1 µM

q: Same read-out for `CCc1cc(-c2cc3cc(NC(=O)c4[nH]nc(C)c4C)cnc3[nH]2)ccn1` ?
a: 0.0001 to 1 µM

q: Same read-out for `Cc1n[nH]c(C(=O)Nc2cnc3[nH]c(-c4cccc5c4OCC5)cc3c2)c1C` ?
a: 10 to 200 µM

====

Entries and their measured IC50 follow.
- target_or_system: c-kit kinase (Homo sapiens (Human))
- test_method_notes: c-Kit biochemical assay (AlphaScreen)
- study_conditions: c-kit biochemical inhibitory activity

- record_smiles: "Cc1n[nH]c(C(=O)Nc2cnc3[nH]c(-c4cccc(CC(=O)O)c4)cc3c2)c1C"
  IC50: "0.0001 to 1 µM"
- record_smiles: "Cc1n[nH]c(C(=O)Nc2cnc3sc(-c4ccccc4)nc3c2)c1C"
  IC50: "1 to 10 µM"
- record_smiles: "Cc1nn(C)cc1-c1cc2cc(NC(=O)c3[nH]nc(C)c3C)cnc2[nH]1"
  IC50: "0.0001 to 1 µM"
- record_smiles: "Cc1n[nH]c(C(=O)Nc2cnc3[nH]c(C4=CCN(C(=O)N5CCOCC5)C4)cc3c2)c1Cl"
  IC50: "0.0001 to 1 µM"
- record_smiles: "Cc1n[nH]c(C(=O)Nc2cnc3c(c2)cc(C2=CCN(C(=O)N4CCOCC4)CC2)n3S(=O)(=O)c2ccccc2)c1C"
  IC50: "10 to 200 µM"
- record_smiles: "Cc1cncc(-c2cc3cc(NC(=O)c4[nH]nc(C)c4C)cnc3[nH]2)c1"
  IC50: "1 to 10 µM"
- record_smiles: "Cc1n[nH]c(C(=O)Nc2cnc3[nH]c(-c4ccc(F)cc4)cc3c2)c1C"
  IC50: "10 to 200 µM"

Proceeding to the next compound to report its IC50.
q: Give its IC50 value. Item: `Cc1n[nH]c(C(=O)Nc2cnc3[nH]c(-c4ccc(C5(C(=O)O)CC5)cc4)cc3c2)c1C`
a: 0.0001 to 1 µM
